Target: MDMX (Homo sapiens, UniProt O15151)
Sequence (O15151 1-125): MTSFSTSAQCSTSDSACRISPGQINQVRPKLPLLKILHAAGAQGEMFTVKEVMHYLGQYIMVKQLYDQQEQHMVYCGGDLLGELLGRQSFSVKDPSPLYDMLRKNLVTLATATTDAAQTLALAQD
Assay: Competitive fluorescence polarization assay for MDMX
Assay type: binding
Conditions: Ki (MDMX), competitive FP assay
Where a SMILES comes first, the peptide text is derived from it. Bridges are numbered along the chain shown (N, C = ends). [ ]: non-standard residue; d: D form. R8 = C=CCCCCCC[C@@](C)(N)C(=O)O; S5 = C=CCCC[C@](C)(N)C(=O)O
property: Ki

compound	property	result
CC(=O)N[C@@H](CC(C)C)C(=O)N[C@H](C(=O)N[C@@H](C)C(=O)N[C@]1(C)CCCCCCC=CCCC[C@@](C)(C(=O)N[C@@H](C)C(=O)N[C@@H](C)C(=O)N[C@@H](C)C(=O)N[C@@H](C)C(=O)N[C@@H](C)C(=O)N[C@H](C)C(N)=O)NC(=O)[C@H](CC(C)C)NC(=O)[C@H](CCC(N)=O)NC(=O)[C@H](C)NC(=O)[C@H](Cc2c[nH]c3ccccc23)NC(=O)[C@H](Cc2ccc(O)cc2)NC(=O)[C@H](CCC(=O)O)NC1=O)[C@@H](C)O [compound 560] (Ac-LTA[R8]EYWAQL[S5]AAAAA[dA]-NH2; staple 4-11)	Ki	> 1 µM
CC(=O)N[C@@H](CC(C)C)C(=O)N[C@H](C(=O)N[C@@H](Cc1ccccc1)C(=O)N[C@]1(C)CCCCCCCCCCC[C@@](C)(C(=O)N[C@@H](C)C(=O)N[C@@H](C)C(=O)N[C@@H](C)C(=O)N[C@@H](C)C(=O)N[C@@H](C)C(=O)N[C@H](C)C(N)=O)NC(=O)[C@H](CC(C)C)NC(=O)[C@H](CCC(N)=O)NC(=O)[C@H](C)NC(=O)[C@H](Cc2c[nH]c3ccccc23)NC(=O)[C@H](Cc2ccc(O)cc2)NC(=O)[C@H](CCC(=O)O)NC1=O)[C@@H](C)O	Ki	0.01 to 0.1 µM
CC(=O)N[C@@H](CC(C)C)C(=O)N[C@H](C(=O)N[C@@H](Cc1ccccc1)C(=O)N[C@]1(C)CCCCCCC=CCCC[C@@](C)(C(=O)N[C@@H](C)C(=O)N[C@@H](C)C(=O)N[C@@H](C)C(=O)N[C@@H](C)C(=O)N[C@@H](C)C(=O)N[C@@H](C)C(=O)N[C@H](C)C(N)=O)NC(=O)[C@H](CC(C)C)NC(=O)[C@H](CCC(N)=O)NC(=O)[C@H](C)NC(=O)[C@H](Cc2c[nH]c3ccccc23)NC(=O)[C@H](Cc2ccc(O)cc2)NC(=O)[C@H](CCC(=O)O)NC1=O)[C@@H](C)O (single isomer, unassigned)	Ki	< 0.01 µM

###

Target: MDMX (Homo sapiens)
Experiment: Competitive fluorescence polarization assay for MDMX
Format: binding
Settings: competitive FP assay, read-out: IC50 (MDMX)
Where a SMILES comes first, the peptide text is derived from it. Bridges are numbered along the chain shown (N, C = ends). [ ]: non-standard residue; d: D form. R8 = C=CCCCCCC[C@@](C)(N)C(=O)O; Cba = N[C@@H](CC1CCC1)C(=O)O; S5 = C=CCCC[C@](C)(N)C(=O)O; Nle = CCCC[C@H](N)C(=O)O

compound	IC50
CCCC[C@H](NC(=O)[C@H](Cc1c[nH]c2ccccc12)NC(=O)[C@H](C)NC(=O)[C@]1(C)CCCC=CCCCCCC[C@@](C)(NC(=O)[C@H](Cc2ccccc2)NC(=O)[C@@H](NC(=O)[C@H](CC(C)C)NC(C)=O)[C@@H](C)O)C(=O)N[C@@H](CCC(=O)O)C(=O)N[C@@H](Cc2ccc(O)cc2)C(=O)N[C@@H](Cc2c[nH]c3ccccc23)C(=O)N[C@@H](C)C(=O)N[C@@H](CCC(N)=O)C(=O)N[C@@H](CC2CCC2)C(=O)N1)C(=O)N[C@@H](C)C(N)=O [compound 241] (Ac-LTF[R8]EYWAQ[Cba][S5]AW[Nle]A-NH2; staple 4-11)	100 to 1000 nM

Source listed as patent US8927500B2.
